src = PubChem BioAssay (NCI)

tested on: SNB-19 CNS; experiment: NCI-60 one-dose screen, 48 h (100 = growth as untreated, 0 = no growth, -100 = all killed); settings: 10 µM unless noted
The panel holds about 83,000 compounds, 20% with a hit somewhere; the sample as a whole holds those more often.
Returns one of class 1 or class 0; class 1 when growth is >= 90%.

COMPOUND | ASSIGNED CLASS
CCCCCCCCCCCCCCCCNC(=O)Nc1ccc2ccccc2c1 | class 1
O=C1C=CC(=O)N1c1ccccn1 | class 1
O=C(N/N=C/c1cccc(O)c1O)c1ccccc1 | class 0
O=C(/C=C/c1cccc(O)c1)c1cccc(-n2cc(-c3ccccc3)[nH]c2=O)c1 | class 0
C[C@H](C(=O)N[C@@H](Cc1ccc(-c2ccccc2)cc1)C(=O)NC1CC(C)(C)NC(C)(C)C1)c1ccc(-c2ccccc2)c(F)c1 | class 0
O=C1NC(=O)/C(=C\c2ccco2)S1 | class 1
CCSc1nc(Nc2ccc(S(=O)(=O)Nc3ccon3)cc2)c(C#N)c(-c2cccc(Br)c2)n1 | class 1
Cn1ccnc1C(=O)/C=C/c1ccc(C(=O)Nc2nc3ccccc3[nH]2)cc1 | class 0
O=C(COc1cccc(/C=C2\Cc3ccccc3C2=O)c1)c1ccc(Cl)cc1 | class 1
COc1cc(-c2nc3sc4c(c3c(=O)[nH]2)CCCCCC4)cc(OC)c1OC | class 0
Cc1ccc(NC(=O)c2sc3nc4c(cc3c2N)C(=O)CCC4)cc1 | class 0
CCCCCCCSc1ncnc2[nH]ncc12 | class 0
COc1ccc(CNC(=O)c2c(C)n([O-])c3cc(F)c(F)cc3[n+]2=O)cc1 | class 1
COc1ccc2nc(N/N=C(\C)c3ccccn3)cc(C)c2c1 | class 0
CNCCCn1c2c(c3ccc(F)cc3c1=O)C(=O)c1cc(OC)cnc1-2 | class 0
COc1cc(/C=C/C(=O)C(C(=O)/C=C/c2ccc(OC(=O)CCNc3nnc(C)s3)c(OC)c2)C(=O)CCNc2nnc(C)s2)ccc1OC(=O)CCNc1nnc(C)s1 | class 0
COc1ccc(CCN2C(=O)CCC3=C2CCCC3=O)cc1OC | class 1
O=C(O)CCNS(=O)(=O)c1ccc(-c2ccccc2)cc1 | class 1
C[N+]1(C)C2CC[C@@H]1CC(OC(=O)C(O)c1ccccc1)C2 (some centres not stated) | class 1
O=C(Nc1nc2ccc(OC(F)(F)F)cc2s1)c1ccc(F)cc1 | class 0
